Reference for the values: PubChem BioAssay (NCI)

- Tested on: A549/ATCC NSCLC
- Measurement protocol: NCI-60 one-dose screen, 48 h
- Details: 10 µM unless noted
This is part of a sample that, as a whole, favours compounds with a hit. Of some 83,000 tested, about 20% had one in any assay. Calls of active or inactive are those of the source. How the source made its calls: active means growth percent below 10; inactive means the rest.
Outcome codes: active, inactive

1) CC1(C)NCCC[C@]2(C)[C@H]3C=CC4=C5C[C@](C)(CO)CC[C@]5(C)CC[C@@]4(C)[C@]3(C)CC[C@@H]12; active
2) CCC(C)[C@H](NC(=O)NC(=O)NC(=O)CI)C(=O)OC (some centres undefined); inactive
3) CCOc1ccc2sc(NS(=O)(=O)c3ccc(N)cc3)nc2c1; inactive
4) CC[C@]1(O)CC2CN(CCc3c([nH]c4ccccc34)[C@@](C(=O)OC)(c3cc4c(cc3OC)N(C=O)[C@H]3[C@@](O)(C(=O)OC)[C@H](OC(C)=O)[C@]5(CC)C=CCN6CC[C@]43[C@@H]65)C2)C1 (some centres undefined); inactive
5) C[C@@H](NC(=O)[C@@H](CC(=O)N1CCC(N2CCCCC2)CC1)N1C(=O)[C@@H](N2C(=O)OC[C@@H]2c2ccccc2)[C@H]1/C=C/c1cccc(Cl)c1)c1ccccc1; inactive
6) CNc1cc(C(=O)O)nc(NC)n1; inactive
7) NS(=O)(=O)c1ccc(CCN2C(=O)/C(=C\c3ccccc3)C=C2c2ccc(Cl)cc2)cc1; inactive
8) COc1ccc(C(=O)/C=C/c2ccccn2)c(O)c1; inactive
9) Cn1cc(-c2nnc(-c3cn(C)c4ncc(Br)cc34)s2)c2cc(Br)ccc21; inactive
10) CC(C)c1ccc(/C=N/N=C(N)N)cc1; inactive
11) O=S(=O)(NCc1ccccc1)c1ncnc2nc[nH]c12; inactive
12) O=C1Nc2ccccc2/C1=C/C(=O)c1ccc(N2CCOCC2)cc1; inactive
13) Cc1nc(-c2ccccc2)sc1CC#N; inactive
14) CC(C)c1ccc(C(=O)Nc2nc3ccc(O)cc3s2)cc1; inactive
15) COc1ccc(OC)c([N+](=O)[O-])c1C(=O)CNC(C)=O; inactive
16) O=C(Nc1ccc(CN2CCOCC2)c(C(F)(F)F)c1)c1nc2ccc3[nH]ncc3c2c2c1CCCC2; inactive
17) Nc1ccc(NC(=O)c2ccccc2)c2c1C(=O)c1ccccc1C2=O; inactive
18) Cc1ccccc1-n1nnc(C(=O)Nc2nc3ccc(F)cc3s2)c1C; inactive
19) Cc1c(Cn2cc(COc3ccc(Br)cc3)nn2)c(C)c(Cn2cc(COc3ccc(Br)cc3)nn2)c(C)c1Cn1cc(COc2ccc(Br)cc2)nn1; inactive

----------
- Tested on: NCI-H460 lung
- Measurement protocol: NCI-60 one-dose screen, 48 h (100 = growth as untreated, 0 = no growth, -100 = all killed)
- Details: 10 µM unless noted
About 83,000 compounds went through this panel and 20% of them were active in at least one assay; those are over-represented in the sample as a whole.
Reported property: growth (%)

1) CCOC(=O)c1nn(C2CCCCO2)c2ccc(NS(=O)(=O)c3ccc(C)cc3)cc12 (stereo not given); 99.4
2) CCCCCCNC(=O)Nc1ncnc2c1ncn2-c1ccccc1; 102
3) C=CC1=C(C)C2=NC1=CC1=NC(=CC3=C(C)C4=C(O)C(C(=O)O)C(=C5NC(=C2)C(C)C5CCC(=O)O)C4=N3)C(CC)=C1C (stereo not given); 107
4) Cc1nc(Cl)cc(N(c2cc(Cl)nc(C)n2)c2ncc(C(=O)Nc3c(C)cccc3Cl)s2)n1; 59.5
5) O=c1c2c3c(sc2n2cnnc2n1Cc1ccccc1)CCCC3; 97.7
6) N#CC1C(=O)NC(c2ccccc2[N+](=O)[O-])c2sc3c(F)cccc3c21 (stereo not given); 2.01
7) COc1ccc2c3ccnc(C(F)(F)F)c3n(CCCCN)c2c1; 47.1
8) CCN(CC)c1cc(N)c(Cc2c(N)cc(N(CC)CC)cc2Cl)c(Cl)c1; 35
9) Nn1c(Nc2ccc(S(=O)(=O)Nc3ncccn3)cc2)nnc(/C=C/c2c(O)ccc3ccccc23)c1=O; 88.4
10) C#CCC(C(=O)OCC)C(=O)OCC; 109
